# Lookup of reported IC50 keyed by entry
target: hAChE (human erythrocyte membranes as a AChE source) (Homo sapiens, UniProt P22303); construct: human erythrocyte membranes as a AChE source; from tissue; host or cells: human erythrocyte membranes; assay: acetylcholinesterase (AChE) activity, modified Ellman method; format: biochemical; details: IC50, enzyme not named in the examples; AChE per the Table
Sequence (P22303 32-617 isoform P22303-2 limits assumed): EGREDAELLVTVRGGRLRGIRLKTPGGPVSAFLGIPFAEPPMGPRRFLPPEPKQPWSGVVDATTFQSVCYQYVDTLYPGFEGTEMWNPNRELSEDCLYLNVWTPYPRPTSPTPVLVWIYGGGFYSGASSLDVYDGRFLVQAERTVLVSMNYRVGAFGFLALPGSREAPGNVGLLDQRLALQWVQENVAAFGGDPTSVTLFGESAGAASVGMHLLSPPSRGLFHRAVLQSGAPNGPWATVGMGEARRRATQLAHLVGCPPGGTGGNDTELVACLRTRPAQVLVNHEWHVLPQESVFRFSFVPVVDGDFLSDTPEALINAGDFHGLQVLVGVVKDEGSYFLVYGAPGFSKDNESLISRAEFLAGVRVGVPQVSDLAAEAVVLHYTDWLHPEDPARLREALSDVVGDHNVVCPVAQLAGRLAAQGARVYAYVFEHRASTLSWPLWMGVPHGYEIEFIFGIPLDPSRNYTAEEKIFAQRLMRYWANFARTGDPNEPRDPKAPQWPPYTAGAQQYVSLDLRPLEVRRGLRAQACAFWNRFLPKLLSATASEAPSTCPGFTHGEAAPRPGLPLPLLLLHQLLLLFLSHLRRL
Your answer should be a plain number; it is taken to be in nM.

Record excerpt, results attached:
{"compound": "COc1cc2c(cc1OC)C(=O)C(Cc1cc[n+](Cc3ccccc3)cc1C#N)C2 (centres unmarked) [Compound 26]", "readoutUnit": "nM", "reported": 11.2}
{"compound": "COc1cc2c(cc1OC)C(=O)C(CC1C=CN(Cc3ccccc3)C=C1C(C)=O)C2 (centres unmarked) [Compound 34]", "readoutUnit": "nM", "reported": 528}
{"compound": "COc1cc2c(cc1OC)C(=O)C(CC1C=CN(Cc3ccccc3)C=C1C#N)C2 (centres unmarked) [Compound 27]", "readoutUnit": "nM", "reported": 175}
{"compound": "COc1cc2c(cc1OC)C(=O)C(Cc1cc[n+](Cc3ccccc3)cc1)C2 (centres unmarked) [Compound 23]", "readoutUnit": "nM", "reported": 36.8}

# input # lookup: IC50 of COc1cc2c(cc1OC)C(=O)C(Cc1cc[n+](Cc3ccccc3)cc1C(C)=O)C2 (centres unmarked) [Compound 33]
# output 18
